molecular target: USP28 (His-tagged USP28-FL-mammalian) (Homo sapiens); construct: Expression of USP28 (1-1077)-TEV-6*His (pTT5 vector); made in house; host or cells: Expi293f cells (pTT5 vector); assay: Ubiquitin-Rhodamine 110 Assay for USP28 Activity, Example A-1(a); type: biochemical; settings: Ubiquitin-Rhodamine 110 assay, Example A-1(a); read-out: USP28 A-1(a) IC50 range
Sequence (Q96RU2 whole entry): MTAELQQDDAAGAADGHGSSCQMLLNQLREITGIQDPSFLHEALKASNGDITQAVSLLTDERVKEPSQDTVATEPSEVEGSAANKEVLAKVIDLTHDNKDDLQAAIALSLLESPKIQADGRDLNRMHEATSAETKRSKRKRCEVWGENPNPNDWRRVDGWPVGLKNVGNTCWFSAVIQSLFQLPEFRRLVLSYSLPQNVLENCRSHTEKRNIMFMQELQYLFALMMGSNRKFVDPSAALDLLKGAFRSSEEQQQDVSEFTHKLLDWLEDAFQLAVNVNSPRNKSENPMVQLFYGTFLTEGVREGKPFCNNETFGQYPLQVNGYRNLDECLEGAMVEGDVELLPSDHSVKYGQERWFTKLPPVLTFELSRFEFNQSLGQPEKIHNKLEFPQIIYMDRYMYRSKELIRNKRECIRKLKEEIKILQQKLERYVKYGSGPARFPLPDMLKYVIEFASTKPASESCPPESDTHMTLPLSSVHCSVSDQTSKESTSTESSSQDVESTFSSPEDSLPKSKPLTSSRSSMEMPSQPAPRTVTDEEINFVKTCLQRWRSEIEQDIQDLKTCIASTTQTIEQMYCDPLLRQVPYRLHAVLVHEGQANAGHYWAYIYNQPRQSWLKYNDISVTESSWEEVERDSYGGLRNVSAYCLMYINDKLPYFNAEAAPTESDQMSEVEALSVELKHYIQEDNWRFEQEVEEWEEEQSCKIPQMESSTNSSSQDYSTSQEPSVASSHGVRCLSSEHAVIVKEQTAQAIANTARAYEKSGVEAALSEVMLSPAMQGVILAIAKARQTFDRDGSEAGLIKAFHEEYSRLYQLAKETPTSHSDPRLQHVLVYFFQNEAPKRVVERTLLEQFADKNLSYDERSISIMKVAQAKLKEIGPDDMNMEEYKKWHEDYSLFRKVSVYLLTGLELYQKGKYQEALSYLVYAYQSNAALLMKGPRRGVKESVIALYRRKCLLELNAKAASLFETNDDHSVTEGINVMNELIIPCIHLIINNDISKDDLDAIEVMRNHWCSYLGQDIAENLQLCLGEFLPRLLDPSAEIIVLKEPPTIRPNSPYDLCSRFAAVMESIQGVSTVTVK
pIC50: −log10 of the molar value.
Reported pIC50 values for a set of molecules
QUANTITY NAME: pIC50

[
  {
    "MOLECULE": "Cc1ccc2c(N)c(C(=O)N[C@H]3CCc4nc(N5C[C@@H]6COC[C@]6(N)C5)ccc4C3)sc2n1 [Example 394]",
    "QUANTITY NAME": "pIC50",
    "RESULT": "6.70 to 7.30"
  },
  {
    "MOLECULE": "Cc1ccc2c(N)c(C(=O)N[C@@H]3CCc4nc(N5CCNCC5)ccc4C3)sc2n1 (single isomer, unassigned) [Example 23-8]",
    "QUANTITY NAME": "pIC50",
    "RESULT": "6.70 to 7.30"
  },
  {
    "MOLECULE": "Cc1cc(C)c2c(N)c(C(=O)N[C@H]3COc4cc(N5CC[C@@H]6CNC[C@@H]65)cc(F)c4C3)sc2n1 (single isomer, unassigned) [Example 223]",
    "QUANTITY NAME": "pIC50",
    "RESULT": "7.30 to 9.00"
  },
  {
    "MOLECULE": "Cc1ccc2c(N)c(C(=O)N[C@H]3CCc4nc(N5C[C@H]6COC[C@@H](C5)[C@H]6N)ccc4C3)sc2n1 [Example 396]",
    "QUANTITY NAME": "pIC50",
    "RESULT": "6.70 to 7.30"
  },
  {
    "MOLECULE": "Cc1cnc2c(N)c(C(=O)N[C@H]3CCc4cc(N5CC(C(=O)O)C5)ccc4C3)sc2n1 [Example 6-4]",
    "QUANTITY NAME": "pIC50",
    "RESULT": "5.70 to 6.70"
  },
  {
    "MOLECULE": "COC[C@@H]1CN(c2ccc3c(n2)OC[C@H](NC(=O)c2sc4nc(C)cc(C)c4c2N)C3)C[C@@H]1N [Example 348]",
    "QUANTITY NAME": "pIC50",
    "RESULT": "6.70 to 7.30"
  },
  {
    "MOLECULE": "Cc1cc(C)c2c(N)c(C(=O)N[C@@H]3CCc4nc(N5C[C@H](OC(C)C)[C@@H](N)C5)ncc4C3)sc2n1 (single isomer, unassigned) [Example 31-2]",
    "QUANTITY NAME": "pIC50",
    "RESULT": "< 5.70"
  },
  {
    "MOLECULE": "Cc1nc2sc(C(=O)N[C@@H]3CCc4cc(N5CC6CCC(C5)N6)ccc4C3)c(N)c2cc1F (single isomer, unassigned) [Example 11-4]",
    "QUANTITY NAME": "pIC50",
    "RESULT": "7.30 to 9.00"
  },
  {
    "MOLECULE": "CCn1ccc2cc(C(=O)N[C@H]3CCc4nc(N5C[C@H](N)[C@@H](C(F)(F)F)C5)ccc4C3)cnc21 [Example 421]",
    "QUANTITY NAME": "pIC50",
    "RESULT": "6.70 to 7.30"
  },
  {
    "MOLECULE": "CCO[C@H]1CN(c2ccc3c(n2)OC[C@H](NC(=O)c2sc4nc(C)cnc4c2N)C3)C[C@@H]1N [Example 182]",
    "QUANTITY NAME": "pIC50",
    "RESULT": "5.70 to 6.70"
  },
  {
    "MOLECULE": "Cc1ccc2c(N)c(C(=O)N[C@@H]3CCc4nc(N5C[C@H](OC(C)C)[C@@H](N)C5)ncc4C3)sc2n1 [Example 272]",
    "QUANTITY NAME": "pIC50",
    "RESULT": "5.70 to 6.70"
  },
  {
    "MOLECULE": "O=C(N[C@H]1COc2cc(N3CC4CCC(C3)N4)ccc2C1)c1cnc2c(c1)[C@H]1C[C@H]1CN2 [Example 3-16]",
    "QUANTITY NAME": "pIC50",
    "RESULT": "5.70 to 6.70"
  },
  {
    "MOLECULE": "Cc1ccc2c(N)c(C(=O)N[C@H]3COc4cc(N5C[C@H]6CCNC[C@H]65)ccc4C3)sc2n1 (single isomer, unassigned) [Example 33-4]",
    "QUANTITY NAME": "pIC50",
    "RESULT": "7.30 to 9.00"
  }
]
